Tested on: HT-29
Assay: NCI tumour cell line growth inhibition, 48 h
Active and inactive are the calls of the source. Cut-off read from the data, not from the text of the source: active = GI50 up to about 1.1 µM and inactive = higher.
experimental.readout: GI50

[
  {
    "compound": "COc1cc(/C=C/c2ccc(O)c(OC)c2)cc(OC)c1",
    "experimental.readout": "GI50",
    "val": "30.8 µM (inactive)"
  },
  {
    "compound": "OCc1cn(C(c2ccccc2)(c2ccccc2)c2ccccc2)cn1",
    "experimental.readout": "GI50",
    "val": "> 100 µM (inactive)"
  },
  {
    "compound": "O=C1NC(c2ccc3ccccc3c2)Nc2ccccc21 (stereo not given)",
    "experimental.readout": "GI50",
    "val": "24.8 µM (inactive)"
  },
  {
    "compound": "CCOP(=O)(OCC)C1=C(c2ccccc2)OC(N)=C(C#N)C1c1ccc(Cl)cc1 (stereo not given)",
    "experimental.readout": "GI50",
    "val": "> 100 µM (inactive)"
  },
  {
    "compound": "CC(=O)OCC1OC(OCCCOP(=S)(OCCC#N)OCC2OC(n3ccc(N)nc3=O)C(OC(=O)c3ccccc3)C2OC(=O)c2ccccc2)C(OC(C)=O)C(OC(C)=O)C1OC(C)=O (stereo not given)",
    "experimental.readout": "GI50",
    "val": "> 100 µM (inactive)"
  }
]

* * *

Tested on: HL-60
Assay: NCI tumour cell line growth inhibition, 48 h
Activity calls are given as the source filed them. Rule as the data show it: active = GI50 up to about 1.1 µM and inactive = higher.
# GI50 annotations
experimental.readout: GI50

[
  {
    "smiles.structure": "O=C(NCCN1CCCCC1)c1ccc(Br)cc1",
    "val": "2.81 µM (inactive)"
  },
  {
    "smiles.structure": "CCOC(=O)c1c(O)nc(O)c(CC)c1C",
    "val": "> 100 µM (inactive)"
  },
  {
    "smiles.structure": "COc1cc(OC)c(/C=C2\\N=C(C)N(Nc3nnc(NN4C(=O)/C(=C/c5c(OC)cc(OC)cc5OC)N=C4C)c4ccccc34)C2=O)c(OC)c1",
    "val": "> 100 µM (inactive)"
  },
  {
    "smiles.structure": "O=c1c2ccccc2nc(N/N=C/c2ccc(Cl)cc2)n1-c1ccccc1",
    "val": "> 100 µM (inactive)"
  },
  {
    "smiles.structure": "CO/[N+]([O-])=C\\C(=O)N/C=C/C(=O)O",
    "val": "> 100 µM (inactive)"
  }
]

* * *

This listing pairs compounds with measured GI50.
System: MCF7
Assay: NCI tumour cell line growth inhibition, 48 h
Calls of active or inactive are those of the source. No stated cut-off is given here; in the data, active = GI50 up to about 1.1 µM and inactive = higher.

[
  {
    "compound": "CCCCCCCCCCCCCCCCCCNc1ccn(C2OC(COP(=O)(O)OCC3OC(n4cc(C)c(=O)[nH]c4=O)CC3N=[N+]=[N-])C(O)C2O)c(=O)n1 (stereo not given)",
    "GI50": "37 µM (inactive)"
  },
  {
    "compound": "Clc1sc(Cl)c2c1[C@@H](Cl)C[C@@H]2Cl",
    "GI50": "52.4 µM (inactive)"
  },
  {
    "compound": "C=C[C@]1(C)C[C@@H](OC(=O)CO)[C@@]2(C)[C@H](C)CC[C@]3(CCC(=O)[C@H]32)[C@@H](C)[C@@H]1O",
    "GI50": "21.5 µM (inactive)"
  },
  {
    "compound": "COc1ccc(N)c(C(O)CCNC(C)=O)c1 (stereo not given)",
    "GI50": "> 100 µM (inactive)"
  },
  {
    "compound": "O=C(O)c1cc(CCc2ccc(O)c(O)c2)ccc1O",
    "GI50": "> 100 µM (inactive)"
  },
  {
    "compound": "CN1CCN(C(=S)N(C(=O)c2ccc(Cl)cc2)c2ccccc2)CC1",
    "GI50": "> 100 µM (inactive)"
  },
  {
    "compound": "COc1ccc(/C=C2\\C[C@H]3[C@@H]4CCC5=CC(=O)CC[C@]5(C)[C@H]4CC[C@]3(C)C2=O)cc1OC",
    "GI50": "4.67 µM (inactive)"
  },
  {
    "compound": "COc1cc2nc(-c3cccs3)nc(N3C(c4ccc(O)cc4)=NNC(=O)c4ccccc43)c2cc1OC",
    "GI50": "36.7 µM (inactive)"
  },
  {
    "compound": "COc1cc(CCC(=O)O)c2cc3ccccc3cc2c1O",
    "GI50": "16.4 µM (inactive)"
  },
  {
    "compound": "Clc1cc(C(c2cc(Cl)sc2Cl)c2cc(Cl)sc2Cl)c(Cl)s1",
    "GI50": "> 100 µM (inactive)"
  }
]

* * *

Listing: GI50 of selected compounds
Test system: UO-31
Experiment: NCI tumour cell line growth inhibition, 48 h
The source made the active and inactive calls. Rule as the data show it: active = GI50 up to about 1.1 µM and inactive = higher.

[
  {
    "compound": "O=c1[nH]nc(Cn2c3ccc(Br)cc3c3nc4ccccc4nc32)n1C1CCCCC1",
    "GI50": "> 100 µM (inactive)"
  },
  {
    "compound": "C[C@]12Cc3conc3C(O)=C1CC[C@@H]1C2CC[C@@]2(C)C1CC[C@@H]2O (stereo partly drawn)",
    "GI50": "15.3 µM (inactive)"
  },
  {
    "compound": "C/C(=N\\NC(=O)/C(C#N)=C\\c1ccc(N(CCC#N)CCC#N)cc1)c1ccccc1",
    "GI50": "> 10 µM (inactive)"
  },
  {
    "compound": "Cc1ccc(S(=O)(=O)c2ccc(N)cc2)cc1",
    "GI50": "> 100 µM (inactive)"
  },
  {
    "compound": "Brc1ccc2c(c1)-c1nc3nc4c(cc3cc1CC2)CCc1ccc(Br)cc1-4",
    "GI50": "> 100 µM (inactive)"
  },
  {
    "compound": "Cc1nc2c(n1-c1ccc(Br)cc1)C(=O)c1ccccc1C2=O",
    "GI50": "7.76 µM (inactive)"
  },
  {
    "compound": "CCOC(=O)c1[nH]cc(C)c1-c1ccc2c(-c3ccccc3)nc3ccccc3n12",
    "GI50": "3.86 µM (inactive)"
  },
  {
    "compound": "O=C1CCCC2=C1C(c1ccc3c(c1)OCO3)Nc1ccc3ccccc3c12 (stereo not drawn)",
    "GI50": "> 100 µM (inactive)"
  },
  {
    "compound": "C[N+](C)([O-])Cc1cc(-c2ccccc2)ccc1O",
    "GI50": "> 100 µM (inactive)"
  },
  {
    "compound": "CC(C)C(Nc1c2ccccc2[n+](C)c2ccccc12)C(=O)O (stereo not drawn)",
    "GI50": "> 100 µM (inactive)"
  },
  {
    "compound": "S=C(Nc1ccc(Br)cn1)NC12CC3CC(CC(C3)C1)C2",
    "GI50": "28.3 µM (inactive)"
  },
  {
    "compound": "N#C/C(=C\\c1ccccc1)c1nc(-c2cc3ccccc3oc2=O)cs1",
    "GI50": "93.1 µM (inactive)"
  },
  {
    "compound": "CCCCCCCCCCCCCCCCCCNc1ccn(C2OC(COP(=O)(O)OCC3OC(n4cc(C)c(=O)[nH]c4=O)CC3N=[N+]=[N-])C(O)C2O)c(=O)n1 (stereo not drawn)",
    "GI50": "21 µM (inactive)"
  },
  {
    "compound": "Nc1nc(Nc2ccc(Cl)cc2)sc1C(=O)c1cc2ccccc2oc1=O",
    "GI50": "> 100 µM (inactive)"
  },
  {
    "compound": "CCCCCCCCCCCCCc1nnn[nH]1",
    "GI50": "16 µM (inactive)"
  },
  {
    "compound": "C/C(=N\\NC(N)=O)c1sc(-c2nc(C)c(/C(C)=N/NC(N)=O)s2)nc1C",
    "GI50": "> 100 µM (inactive)"
  },
  {
    "compound": "Cc1c(N(Cc2ccccc2)Cc2ccccc2)nc(S(C)(=O)=O)nc1S(C)(=O)=O",
    "GI50": "12.1 µM (inactive)"
  },
  {
    "compound": "NC(=O)NNCc1ccccc1",
    "GI50": "> 100 µM (inactive)"
  }
]

* * *

System: NCI-H226
Experiment: NCI tumour cell line growth inhibition, 48 h
The source made the active and inactive calls. Rule as the data show it: active = GI50 up to about 1.1 µM and inactive = higher.

[
  {
    "compound": "CCCCCCCCCCCOc1ccc(C(=O)C(=O)c2ccc(OCCCCCCCCCCC)c(OCCCCCCCCCCC)c2)cc1OCCCCCCCCCCC",
    "system": "NCI-H226",
    "GI50": "> 100 µM (inactive)"
  },
  {
    "compound": "Cc1ccc(S(=O)(=O)n2cncc2CO)cc1",
    "system": "NCI-H226",
    "GI50": "> 100 µM (inactive)"
  },
  {
    "compound": "CCc1n[nH]c(=O)n1-n1c(C)ccc1C",
    "system": "NCI-H226",
    "GI50": "> 100 µM (inactive)"
  },
  {
    "compound": "CCOC(=O)NN(C(=O)OCC)C(=C(C1=CCCCC1)N1CCOCC1)N(NC(=O)OCC)C(=O)OCC",
    "system": "NCI-H226",
    "GI50": "> 100 µM (inactive)"
  },
  {
    "compound": "CCCC/C=C/C1Cc2ccccc2CN1S(=O)(=O)c1ccc(C)cc1 (stereo not given)",
    "system": "NCI-H226",
    "GI50": "10 µM (inactive)"
  }
]
